Each item that follows carries a reported EC50.
biological target: aggregated MBP-HTT(1-89)Q46-His(6×) (Exonl-Q46) protein (Q46 protein aggregates) (Homo sapiens (Human), UniProt P42858, INS38QQQQQQQQQQQQQQQQQQQQQQQQQ); assay: Q46 Radioligand Binding Assay; conditions: displacement of 0.3 nM [3H3-methyl]-5-((5-methoxypyridin-2-yl)methoxy)-2-(pyrazin-2-yl)benzo[d]oxazole from 1 μM Exonl-Q46 aggregates; method calls the values IC50; read-out: Q46_RBA EC50_
Sequence (P42858 other isoform, or with tags, fused parts or gaps, stated change not applied): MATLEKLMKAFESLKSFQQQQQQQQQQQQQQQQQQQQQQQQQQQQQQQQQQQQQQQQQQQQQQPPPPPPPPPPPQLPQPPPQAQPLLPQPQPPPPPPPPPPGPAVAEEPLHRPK

compound: COc1ccc(COc2ccc3c(c2)CN(C(=O)c2ccc(OCF)nc2)CC3)nc1 [Example 36]
EC50: 1.96 nM
--
compound: COc1ccc(COc2ccc3c(c2)CN(C(=O)c2ccc(OC)nc2)C(C)C3)nc1 (stereo not drawn) [Example 31]
EC50: 108 nM
--
compound: COc1ccc(COc2ccc3c(c2)CN(C(=O)c2ccc(=O)n(C)c2)CC3)nc1 [Example 41]
EC50: 23.5 nM
--
compound: COc1ccc(COc2cnc3c(c2)CN(c2ccc(OC)cn2)CC3)nc1 [Example 27]
EC50: 3.19 nM
--
compound: COc1ccc(OCCn2cnc3c2CN(C(=O)c2ccc(OC)nc2)CC3)nc1 [Example 30]
EC50: 704 nM
--
compound: COc1ccc(OCc2cn3c(n2)CN(C(=O)c2ccc(OC)nc2)CC3)nc1 [Example 20]
EC50: 1000 nM
--
compound: COc1ccc(COc2ccc3c(c2)CN(C(=O)c2ccc(C)nc2)CC3)nc1 [Example 1.25]
EC50: 2.91 nM
--
compound: COc1ccc(COc2ccc3c(c2)CNCC3)nc1 [Example 1.30]
EC50: 1000 nM
--
compound: COc1ccc(COc2cnc3c(c2)CN(C(=O)c2ccn(CCF)c(=O)c2)CC3)nc1 [Example 1.29]
EC50: 271 nM

###

biological target: aggregated MBP-HTT(1-89)Q46-His(6×) (Exonl-Q46) protein (Q46 protein aggregates) (Homo sapiens (Human), UniProt P42858, INS38QQQQQQQQQQQQQQQQQQQQQQQQQ); assay: Q46 Radioligand Binding Assay; settings: displacement of 0.3 nM [3H3-methyl]-5-((5-methoxypyridin-2-yl)methoxy)-2-(pyrazin-2-yl)benzo[d]oxazole from 1 μM Exonl-Q46 aggregates; method calls the values IC50; read-out: Q46_RBA EC50_
This section presents compounds with their documented EC50 values.

test_smiles: C=CCOc1ccc(C(=O)N2CCc3ncc(OCc4ccc(OC)cn4)cc3C2)cn1
EC50: 3.01 nM
//
test_smiles: COc1ccc(COc2ccc3c(c2)CN(C(C)=O)CC3)nc1
EC50: 96.5 nM
//
test_smiles: COc1ccc(COc2ccc3c(c2)CN(C(=O)N2CCc4cc(OC)ncc4C2)CC3)nc1
EC50: 3.67 nM
//
test_smiles: COc1ccc(COc2cnc3c(c2)CN(C(=O)c2ccnc(OC)c2)CC3)nc1
EC50: 16.3 nM

###

target: aggregated MBP-HTT(1-89)Q46-His(6×) (Exonl-Q46) protein (Q46 protein aggregates) (Homo sapiens (Human), UniProt P42858, INS38QQQQQQQQQQQQQQQQQQQQQQQQQ); experiment: Q46 Radioligand Binding Assay; conditions: same radioligand displacement on Exonl-Q46 aggregates; read-out: Q46_RBA EC50_

compound: COc1ccc(NC(=O)N2CCc3ccccc3C2)cn1
EC50: > 500 nM
//
compound: COc1ccc(COc2ccc3c(c2)CN(C(=O)OCC(C)C)CC3)nc1
EC50: < 100 nM
//
compound: COc1ccc(C(=O)N(C)c2ccc3c(c2)CN(c2ccc(OC)nc2)CC3)nc1
EC50: 100 to 500 nM
//
compound: COc1ccc(COc2ccc3c(c2)CN(C(=O)c2cncc(OC)c2)CC3)nc1
EC50: < 100 nM
//
compound: COc1ccc(COc2ccc3c(c2)CN(C(=O)c2ccc(=O)n(CCF)c2)CC3)nc1
EC50: < 100 nM
//
compound: COc1ccc(Cn2c3c(ccc2=O)CCN(C(=O)c2ccc(OC)nc2)C3)nc1
EC50: > 500 nM
//
compound: COc1ccc(C(=O)N(C)c2ccc3c(c2)CN(C(=O)c2ccc(OC)nc2)CC3)nc1
EC50: > 500 nM
//
compound: COc1ccc(COc2ccc3c(c2)CN(C(=O)c2cnc(OC)cn2)CC3)nc1
EC50: < 100 nM
//
compound: C=CCOc1ccc(COc2ccc3c(c2)CN(C(=O)c2ccc(OC)nc2)CC3)nc1
EC50: < 100 nM
//
compound: COc1ccc(COc2ccc3c(c2)CN(C(=O)c2ccc(OC)nc2)C(C)C3)nc1 (centres unmarked)
EC50: 100 to 500 nM
//
compound: COc1ccc(COc2cnc3c(c2)CN(C(=O)c2ccnc(OC)c2)CC3)nc1
EC50: < 100 nM
//
compound: COc1ccc(COc2ccc3c(c2)CN(C(=O)c2ccc(=O)n(CCF)n2)CC3)nc1
EC50: < 100 nM
//
compound: COc1ccc(COc2ccc3c(c2)CN(C(=O)c2cnn(C)c2)CC3)nc1
EC50: < 100 nM
//
compound: COc1ccc(COc2ccc3c(c2)CN(C(=O)c2ccc(OC)cn2)CC3)nc1
EC50: < 100 nM
//
compound: COc1ccc(COc2ccc3c(c2)CN(C(=O)Nc2ccc(OC)nc2)CC3)nc1
EC50: < 100 nM
//
compound: COc1ccc(COc2ccc3c(c2)CN(C(=O)c2cccnc2)CC3)nc1
EC50: < 100 nM
//
compound: COc1ccc(COc2cnc3c(c2)CN(C(=O)c2ccnc(OCCF)c2)CC3)nc1
EC50: < 100 nM
//
compound: COc1ccc(COc2ccc3c(c2)CN(C(=O)c2ccc(N(C)C)nc2)CC3)nc1
EC50: < 100 nM
//
compound: COc1ccc(COc2ccc3c(c2)CN(Cc2ccc(OC)nc2)CC3)nc1
EC50: 100 to 500 nM
//
compound: COc1ccc(COc2cnc3c(c2)CN(c2ncc(OC)cn2)CC3)nc1
EC50: < 100 nM
//
compound: COc1ccc(COc2cnc3c(c2)CN(C(=O)c2cncc(OCCF)c2)CC3)nc1
EC50: < 100 nM
//
compound: COc1ccc(COc2ccc3c(c2)CN(c2cccc(OC)n2)CC3)nc1
EC50: < 100 nM
//
compound: COc1ccc(COc2cnc3c(c2)CN(C(=O)c2ccc(-n4ccnc4)nc2)CC3)nc1
EC50: < 100 nM
//
compound: COc1ccc(COc2ccc3c(c2)CCN(C(=O)c2ccc(=O)n(C)n2)C3)nc1
EC50: < 100 nM
//
compound: COc1ccc(COc2ccc3c(c2)CN(C(=O)c2ccc(=O)n(C)c2)CC3)nc1
EC50: < 100 nM
//
compound: COc1ccc(COc2ccc3c(c2)CN(C(=O)c2ccc(OC)nc2)CC3)nc1
EC50: < 100 nM
//
compound: COc1ccc(C(=O)N2CCc3ccc(OCc4cnn(C)c4)cc3C2)cn1
EC50: < 100 nM
//
compound: COc1ccc(COc2cc3c(cn2)CCN(C(=O)c2ccc(OC)nc2)C3)nc1
EC50: < 100 nM
//
compound: COc1ccc(COc2ccc3c(c2)CN(c2ccc(OC)nc2)CC3)nc1
EC50: < 100 nM
//
compound: COc1ccc(COc2ccc3c(c2)CNCC3)nc1
EC50: > 500 nM
//
compound: COc1ccc(COc2ccc3c(c2)CN(C(=O)c2ccc(OCF)nc2)CC3)nc1
EC50: < 100 nM
//
compound: COc1ccc(COc2ccc3c(c2)CN(C(=O)C2CCN(C)CC2)CC3)nc1
EC50: > 500 nM
//
compound: COc1ccc(COc2ccc3c(c2)CN(C(=O)c2ccc(C(F)(F)F)nc2)CC3)nc1
EC50: < 100 nM
//
compound: COc1ccc(COc2ccc3c(c2)CN(C(=O)c2ccc(=O)[nH]c2)CC3)nc1
EC50: < 100 nM
//
compound: COCCn1cc(C(=O)N2CCc3ncc(OCc4ccc(OC)cn4)cc3C2)ccc1=O
EC50: < 100 nM

###

molecular target: aggregated MBP-HTT(1-89)Q46-His(6×) (Exonl-Q46) protein (Q46 protein aggregates) (Homo sapiens (Human), UniProt P42858, INS38QQQQQQQQQQQQQQQQQQQQQQQQQ); assay: Q46 Radioligand Binding Assay; conditions: displacement of 0.3 nM [3H3-methyl]-5-((5-methoxypyridin-2-yl)methoxy)-2-(pyrazin-2-yl)benzo[d]oxazole from 1 μM Exonl-Q46 aggregates; method calls the values IC50; read-out: Q46_RBA EC50_

test_smiles: COc1ccc(COc2ccc3c(c2)CN(C(=O)c2ccc(OC)cn2)CC3)nc1
quantity_unit: nM
EC50: 5
//
test_smiles: COc1ccc(COc2ccc3c(c2)CN(C(=O)c2ccc(=O)[nH]c2)CC3)nc1
quantity_unit: nM
EC50: 12
//
test_smiles: COc1ccc(COc2ccc3c(c2)CN(S(=O)(=O)c2ccc(OC)nc2)CC3)nc1
quantity_unit: nM
EC50: 390
//
test_smiles: COc1ccc(COc2ccc3c(c2)CN(c2ccn(C)c(=O)c2)CC3)nc1
quantity_unit: nM
EC50: 260
//
test_smiles: COc1ccc(COc2cnc3c(c2)CN(c2cncc(OC)c2)CC3)nc1
quantity_unit: nM
EC50: 7.86
//
test_smiles: COc1ccc(COc2cnc3c(c2)CN(C(=O)c2ccc(OCCF)nc2)CC3)nc1
quantity_unit: nM
EC50: 4.45
//
test_smiles: COc1ccc(COc2ccc3c(c2)CN(C(=O)c2ccc(OC)nn2)CC3)nc1
quantity_unit: nM
EC50: 5.2
//
test_smiles: C=CCOc1ccc(COc2ccc3c(c2)CN(C(=O)c2ccc(OC)nc2)CC3)nc1
quantity_unit: nM
EC50: 1.05
